tested on: WPMY1-TP53BP1-CLTA; test: lowest phenotypically active concentration; higher = less potent; conditions: treatment time: 24 h
Counter-ions that a name gives are not always drawn.
VALUE_KIND: lowest phenotypically active concentration

Some entries whose results are on file:
>>> df
                                   compound  experimental_system  measured
0  CON(C)C(=O)N1N=C(c2cc(F)ccc2F)S[C@@]1(CCCN)c1ccccc1 [ARRY 520 trifluoroacetate]   WPMY1-TP53BP1-CLTA  ≤ 0.3 µM
1  COc1c(C)cnc(Cn2cc(C#CCC(C)(C)O)c3c(Cl)nc(N)nc32)c1C   WPMY1-TP53BP1-CLTA  ≤ 0.3 µM
2  O=C(NCc1cccc(O)c1)Nc1nc(-c2ccncc2)cs1 [RKI 1447 dihydrochloride]   WPMY1-TP53BP1-CLTA  ≤ 0.3 µM

Entry Cc1n[nH]c2ccc(-c3cncc(OC[C@@H](N)Cc4ccccc4)c3)cc12 , system WPMY1-TP53BP1-CLTA: what lowest phenotypically active concentration was measured?
≤ 0.3 µM
